Test system: human SMAD7 mRNA
protocol: Antisense inhibition of human SMAD7 mRNA expression in Hep3B cells by 5-10-5 MOE gapmers, single concentration, electroporation, RT-PCR (Example 1, Study 1 and 2)
Format: cell-based
measurementConditions: Study 2, electroporation with 15,000 nM antisense oligonucleotide, 5-10-5 MOE gapmers targeting SEQ ID NO: 1 and 2
Strand notation (5' to 3'): a small letter for the sugar, then the base; units joined by * are phosphorothioate-linked, units joined directly phosphodiester-linked; [ ] holds rarer units or linkages, { } end groups; capitals alone tell only the bases. e = 2'-O-(2-methoxyethyl) (MOE); [5mC] = 5-methylcytosine; d = 2'-deoxy (DNA)
measuredProperty: % Inhibition (%)
Kindly answer with a numeric value in %, unit omitted.

771835 (antisense eA*eG*eT*eA*eA*dA*dA*dT*dG*dG*dG*dA*dA*dA*dT*eA*eA*eG*eG*e[5mC]) [compound 771835]
5

Query :: Quick one: % Inhibition of 771838 (antisense eG*eA*eA*e[5mC]*eT*d[5mC]*d[5mC]*dT*dG*d[5mC]*dA*dG*dG*dA*dT*eG*eA*eG*eG*eG) [compound 771838] ?
Result :: 53

Query :: Quick one: % Inhibition of 771440 (e[5mC]*eG*eG*e[5mC]*eT*dG*d[5mC]*dG*d[5mC]*dA*dG*dG*d[5mC]*dT*dG*e[5mC]*eG*e[5mC]*eG*e[5mC]; antisense) [compound 771440] ?
Result :: 48
